Conditions: Crystal; DTA

MOL_SMILES: OC[C@@H](O)[C@H](O)[C@H](O)[C@@H](O)CO
Normal melting temperature, °C: 187.30
//
MOL_SMILES: OC[C@@H](O)[C@@H](O)CO
Normal melting temperature, °C: 118.90
//
MOL_SMILES: OC[C@@H](O)[C@H](O)[C@@H](O)CO
Normal melting temperature, °C: 95.10
//
MOL_SMILES: OC[C@@H](O)[C@@H](O)[C@@H](O)CO
Normal melting temperature, °C: 100.00
//
MOL_SMILES: OC[C@@H](O)[C@@H](O)[C@H](O)[C@H](O)CO
Normal melting temperature, °C: 167.10
